- protocol: qHTS assay to identify small molecule agonists of the farnesoid-X-receptor (FXR) signaling pathway - cell viability counter screen (AID 743218); also: nearly all actives have a fitted effect of over 45% in size
- conditions used: FXR-bla HEK293T viability, CellTiter-Glo luminescence, 16 h; series mostly up to 62.6 µM
- Source text: U.S. Tox21 Program National Center for Advancing Translational Sciences [NCATS] NIH Chemical Genomics Center [NCGC] U.S. Environmental Protection Agency [EPA] National Institutes of Environmental Health Sciences [NIEHS] National Toxicology Program [NTP] U.S. Food and Drug Administration [FDA] Tox21 Assay Overview: The farnesoid-X-receptor (FXR), a nuclear hormone receptor, is highly expressed in liver, intestine, kidney and adrenal cortex. […]
Inconclusive results are not listed. Activity calls are given as the source filed them. Calls follow the shape of the dose curve; as a rule, active = well fitted cell-killing curve with a large enough effect in the repeat runs; inconclusive = weak or mixed curves, or effect the other way; inactive = no such curve, though single readings can be large or run the other way.
Hi there, use one of these labels in your reply, thanks! 1 = active, -1 = inactive

>>> cat("CN1CCN(CCCN2c3ccccc3Sc3ccc(C(F)(F)F)cc32)CC1")
1

Task: // outcome(item) with item = `CN1CCN(c2ccccc2/C=C2\SCCN(c3ccc(Cl)c(Cl)c3)C2=O)CC1`
Result: 1

Task: // outcome(item) with item = `CCCCCN=C(N)N/N=C/c1c[nH]c2ccc(OC)cc12`
Result: 1

Task: // outcome(item) with item = `NCc1cccc(C2CCN(C(=O)c3ccc(C#Cc4ccccc4F)o3)CC2)c1`
Result: 1

Task: // outcome(item) with item = CCCCCCCCCCCCCCCCC(C(=O)O)C(O)(CC(=O)O)C(=O)O (configuration not stated)
Result: 1

Task: // outcome(item) with item = `CN(C)CCOc1ccc(/C(=C(/CCCl)c2ccccc2)c2ccccc2)cc1`
Result: 1

Task: // outcome(item) with item = `O=[N+]([O-])c1ccc(O)c2ncccc12`
Result: -1
